Below, each of the compounds is paired with its reported Potency value.
Target: Thyrotropin receptor (Homo sapiens)
Experiment: Secondary Concentration-Response Assay for Agonists of the Thyroid Stimulating Hormone Receptor: HTRF Activity Detection; note: potency is the fitted concentration of half-maximal effect;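 for activation: HEK 293 cells stably expressing human TSHR with RO 20-1724 phosphodiesterase inhibitor; % of control where 0% means no effect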
Conditions: HEK293-TSHR cells, cAMP HTRF ratio, 30 min; series mostly up to 91.7 µM
Inconclusive results are not listed. Calls of active or inactive are those of the source. Calls come from the whole dose curve; as a rule, active = well fitted activation curve with a large enough effect in the signal ratio, with a control signal flat; inconclusive = small, poorly fitted or top-dose-only effect, or a change in a side signal; inactive = flat fitted curve, though single readings scatter; the % refers to the signal ratio.
measured-property: Potency

COc1ccc(CN(Cc2ccccc2)C(=O)c2ccccc2)cc1COc1ccc(NC(C)=O)cc1 | 8.91 µM (active)
COc1ccc(CN(Cc2ccccc2)C(=O)c2ccccc2N)cc1COc1ccc(NC(C)=O)cc1 | 25.1 µM (active)
COc1ccc(C2Nc3ccc(NC(=O)COC(C)=O)cc3C(=O)N2Cc2ccccc2)cc1COc1ccc(NC(C)=O)cc1 (centres undefined) | 8.91 µM (active)
COc1cccc(CN2C(=O)c3ccccc3NC2c2ccc(OC)c(COc3ccc(NC(C)=O)cc3)c2)c1 (centres undefined) | 6.31 µM (active)
COc1ccc(C2Nc3ccccc3C(=O)N2CCc2ccccc2)cc1COc1ccc(NC(C)=O)cc1 (centres undefined) | 7.94 µM (active)
COc1ccc(-c2nc3ccccc3c(=O)n2Cc2ccco2)cc1COc1ccc(NC(C)=O)cc1 | 17.8 µM (active)
COc1ccc(C2Nc3ccccc3C(=O)N2Cc2ccco2)cc1COc1ccc(NC(C)=O)cc1 (centres undefined) | 15.8 µM (active)
COc1ccc(C2Nc3ccccc3C(=O)N2Cc2cccnc2)cc1COc1ccc(NC(C)=O)cc1 (centres undefined) | 35.5 µM (active)
COc1ccc(CN(Cc2ccccc2)C(=O)C2CC2)cc1COc1ccc(NC(C)=O)cc1 | 15.8 µM (active)

====

Biological target: Thyrotropin receptor (Homo sapiens) (UniProt P16473)
Sequence (P16473 whole entry, looked up): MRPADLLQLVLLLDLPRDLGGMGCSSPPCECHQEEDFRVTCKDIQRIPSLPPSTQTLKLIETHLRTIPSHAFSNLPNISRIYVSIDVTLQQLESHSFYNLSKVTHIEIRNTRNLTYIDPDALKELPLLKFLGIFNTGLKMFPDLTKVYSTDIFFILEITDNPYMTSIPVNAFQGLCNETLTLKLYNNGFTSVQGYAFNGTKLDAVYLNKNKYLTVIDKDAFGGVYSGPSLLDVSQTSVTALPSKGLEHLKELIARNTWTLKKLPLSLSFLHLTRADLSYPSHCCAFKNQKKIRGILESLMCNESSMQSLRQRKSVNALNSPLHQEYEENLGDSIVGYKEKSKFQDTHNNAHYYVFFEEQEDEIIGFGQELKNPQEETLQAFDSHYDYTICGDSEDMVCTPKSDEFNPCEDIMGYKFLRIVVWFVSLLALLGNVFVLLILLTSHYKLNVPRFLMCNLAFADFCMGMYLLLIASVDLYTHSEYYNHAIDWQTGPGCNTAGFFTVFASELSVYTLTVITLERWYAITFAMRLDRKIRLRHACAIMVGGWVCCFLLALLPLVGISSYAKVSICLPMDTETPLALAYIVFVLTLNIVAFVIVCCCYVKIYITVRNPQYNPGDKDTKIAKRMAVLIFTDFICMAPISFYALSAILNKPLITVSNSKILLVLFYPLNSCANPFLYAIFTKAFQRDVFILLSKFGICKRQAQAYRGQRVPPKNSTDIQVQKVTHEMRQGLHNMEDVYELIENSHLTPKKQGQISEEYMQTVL
Experiment: Secondary Concentration-Response Assay for Agonists of the Thyroid Stimulating Hormone Receptor: HTRF Activity Detection;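 for activation: HEK 293 cells stably expressing human TSHR with RO 20-1724 phosphodiesterase inhibitor; % of control where 0% means no effect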
Settings: HEK293-TSHR cells, cAMP HTRF ratio, 30 min; series mostly up to 91.7 µM
Records with an inconclusive call do not appear. The source made the active and inactive calls. Calls come from the whole dose curve; as a rule, active = well fitted activation curve with a large enough effect in the signal ratio, with a control signal flat; inconclusive = small, poorly fitted or top-dose-only effect, or a change in a side signal; inactive = flat fitted curve, though single readings scatter; the % refers to the signal ratio.
measured-property: activation

COc1ccc(C2Nc3ccccc3C(=O)N2Cc2ccco2)cc1COc1cccc(NC(C)=O)c1 (stereo not given) | inactive
COc1ccc(C2Nc3ccccc3C(=O)N2Cc2ccccc2)cc1COc1ccc(F)cc1 (stereo not given) | inactive
CS(=O)(=O)N1CCN(C(=O)c2cc(-c3cccs3)nc3ccccc23)CC1 | 0.0393% [at 0.00035 µM] (inactive)
COc1ccc(C2=Nn3c(nnc3-c3ccccc3OC)SC2)cc1OC | inactive
O=C(CSc1nc2scc(-c3ccco3)c2c(=O)n1-c1ccccc1)N1CCOCC1 | -0.79% [at 0.00035 µM] (inactive)
COc1ccc(CN(Cc2ccccc2)C(=O)c2ccno2)cc1COc1ccc(NC(C)=O)cc1 | inactive
COc1ccc(C2Nc3ccccc3C(=O)N2C2CCCC2)cc1COc1ccc(NC(C)=O)cc1 (stereo not given) | inactive
CCOC(=O)C1C(=O)Nc2nc(C)nn2C1c1ccccc1 (stereo not given) | 2.16% [at 0.00035 µM] (inactive)
COc1ccc(C2Nc3ccccc3C(=O)N2Cc2ccccc2)cc1OCc1ccc(NC(C)=O)cc1 (stereo not given) | inactive
CCOc1cc(C2Nc3ccccc3C(=O)N2c2ccccc2)c(Br)cc1OCC(=O)O (stereo not given) | inactive

====

Target: Thyrotropin receptor (Homo sapiens)
Assay: Secondary Concentration-Response Assay for Agonists of the Thyroid Stimulating Hormone Receptor: HTRF Activity Detection;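 for activation: HEK 293 cells stably expressing human TSHR with RO 20-1724 phosphodiesterase inhibitor; % of control where 0% means no effect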
Conditions: HEK293-TSHR cells, cAMP HTRF ratio, 30 min; series mostly up to 91.7 µM
Records with an inconclusive call do not appear. Active and inactive are the calls of the source. The call rests on the fitted dose curve; in most records, active means well fitted activation curve with a large enough effect in the signal ratio, with a control signal flat; inconclusive means small, poorly fitted or top-dose-only effect, or a change in a side signal; inactive means flat fitted curve, though single readings scatter; the % refers to the signal ratio.
measured-property: activation

Cc1cc(C)nc(N(C#N)CC(=O)N2CCC(C(N)=O)CC2)n1 | 1.28% [at 0.00035 µM] (inactive)
Cc1ccccc1N1C(=O)c2ccccc2N2C(=O)c3ccccc3C12 (stereo not given) | inactive
COc1ccc(C2Nc3ccccc3C(=O)N2Cc2ccco2)cc1COc1ccc(F)cc1 (stereo not given) | inactive
O=C1c2ccccc2NC(c2c(Cl)cccc2Cl)N1Cc1ccccc1 (stereo not given) | inactive
COC(=O)C1=C(C)NC(=O)NC1c1cn(-c2ccccc2)nc1-c1cccs1 (stereo not given) | -0.246% [at 0.00035 µM] (inactive)

====

Target: Thyrotropin receptor (Homo sapiens) (UniProt P16473)
Test: Secondary Concentration-Response Assay for Agonists of the Thyroid Stimulating Hormone Receptor: HTRF Activity Detection;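 for activation: HEK 293 cells stably expressing human TSHR with RO 20-1724 phosphodiesterase inhibitor; % of control where 0% means no effect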
Conditions: HEK293-TSHR cells, cAMP HTRF ratio, 30 min; series mostly up to 91.7 µM
Results filed as inconclusive are left out. Active and inactive are the calls of the source. Calls come from the whole dose curve; as a rule, active = well fitted activation curve with a large enough effect in the signal ratio, with a control signal flat; inconclusive = small, poorly fitted or top-dose-only effect, or a change in a side signal; inactive = flat fitted curve, though single readings scatter; the % refers to the signal ratio.
measured-property: activation

O=C1c2ccccc2NC(c2ccccc2)N1c1ccc(O)cc1 (configuration not stated) | inactive
COc1ccc2c(c1)C1(Nc3ccccc3C(=O)N1c1ccccc1)C(=O)N2 (configuration not stated) | inactive
COc1ccc(S(=O)(=O)NCCC(=O)NCc2ccc(F)cc2)cc1 | -0.0801% [at 0.00035 µM] (inactive)
Cc1ccccc1-n1nc(C)c2cc(C(=O)N3CCN(S(=O)(=O)c4ccc(F)cc4)CC3)sc21 | 0.202% [at 0.00035 µM] (inactive)
COc1ccc(C2Nc3ccccc3C(=O)N2Cc2ccccc2C)cc1COc1ccc(NC(C)=O)cc1 (configuration not stated) | inactive
Cc1nn(C)c(C)c1S(=O)(=O)N(CC(=O)Nc1ccccn1)c1ccc(C(C)C)cc1 | -0.155% [at 0.00035 µM] (inactive)
Cc1cc(Cl)c(S(=O)(=O)Nc2ccc3c(c2)OCO3)cc1OCC(N)=O | -1.33% [at 0.00035 µM] (inactive)
O=C1c2ccccc2N2C(=O)c3ccccc3C2N1Cc1ccco1 (configuration not stated) | inactive
CCOc1cc(C2Nc3ccccc3C(=O)N2Cc2ccco2)ccc1OCc1ccccc1Cl (configuration not stated) | inactive
CC1(C)CC2CC(C)(CN2S(=O)(=O)c2ccc(N)cc2)C1 (configuration not stated) | -0.162% [at 0.00035 µM] (inactive)
COc1ccc(C2Nc3ccccc3C(=O)N2Cc2ccccc2)cc1CSc1ccccn1 (configuration not stated) | inactive
CCS(=O)(=O)N1CCN(C(C)CCc2ccccc2)CC1 (configuration not stated) | 0.972% [at 0.00035 µM] (inactive)
COc1cc(C2Nc3ccccc3C(=O)N2Cc2ccccc2)ccc1OCc1ccc(NC(C)=O)cc1 (configuration not stated) | inactive
O=C1c2ccccc2NC(c2ccc(OCc3ccccc3)c(OCc3ccccc3)c2)N1Cc1ccco1 (configuration not stated) | inactive
CC1(C)c2ccccc2N2CC(=O)NC21/C=C/c1ccco1 (configuration not stated) | 1.29% [at 0.00035 µM] (inactive)
COc1cccc(OCc2cc(C3Nc4ccccc4C(=O)N3Cc3ccccc3)ccc2OC)c1 (configuration not stated) | inactive
O=C(c1ccco1)N(Cc1cccs1)c1ccc(O)cc1 | inactive
COc1ccc(N2C(=O)c3ccccc3NC23C(=O)N(C)c2ccccc23)cc1 (configuration not stated) | inactive
CCOc1ccc(S(=O)(=O)NCc2ccccc2Cl)cc1C(N)=O | inactive
COc1ccc(/C=N/n2cncn2)cc1COc1ccc(NC(C)=O)cc1 | inactive
COc1ccc(CN(Cc2ccccc2)C(=O)c2ccc(NC(C)=O)cc2)cc1COc1ccc(NC(C)=O)cc1 | inactive
O=C(c1ccc(Br)o1)N(Cc1ccccc1)c1ccccn1 | 0.801% [at 0.00035 µM] (inactive)
COc1ccc2c(c1OC)C(=O)N1c3ccccc3C(=O)N(c3ccccc3)C21 (configuration not stated) | inactive
COc1ccc(-c2cc(C(F)(F)F)nc(SCCC(=O)N3CCOCC3)n2)cc1 | 0.123% [at 0.00035 µM] (inactive)
NC(=O)c1nsc(C(=O)N(CC(=O)NCc2ccc3c(c2)OCO3)C2CCCC2)c1N | inactive
Cc1ccc(S(=O)(=O)N2CCC(C(=O)NCCCN3CCCCCC3)CC2)cc1 | 0.566% [at 0.00035 µM] (inactive)
COc1ccc(CN(Cc2ccccc2)C(=O)c2ccccc2O)cc1 | inactive
CC(C)CC(=O)Nc1cccc(-c2cn3ccsc3n2)c1 | 0.105% [at 0.00035 µM] (inactive)
O=C1C2C3CCCC3=C3CCCC3C2C(=O)N1c1cccc(Cl)c1 (configuration not stated) | inactive
CCC(=O)Nc1ccc(OCc2cc(C3Nc4ccccc4C(=O)N3Cc3ccccc3)ccc2OC)cc1 (configuration not stated) | inactive
COc1ccc(-c2nc3ccccc3c(=O)n2Cc2ccccc2)cc1OCc1ccc(NC(C)=O)cc1 | inactive
COc1ccc(C2Nc3ccccc3C(=O)N2Cc2ccccc2)cc1COc1ccc(NC(=O)c2ccccc2)cc1 (configuration not stated) | inactive
O=C1c2ccccc2N2C(=O)c3ccccc3[C@H]2N1c1ccccc1 | inactive
CCCN1C(=O)c2ccccc2NC1c1ccc(OC)c(COc2ccc([N+](=O)[O-])cc2)c1 (configuration not stated) | inactive
CCOc1ccc(N(CC(=O)NCc2cccs2)S(=O)(=O)c2c(C)noc2C)cc1 | -0.0859% [at 0.00035 µM] (inactive)
CCOc1cc(C(=O)N(C)c2ccccc2)cc(OCC)c1OCC | 1.28% [at 0.00035 µM] (inactive)
COc1cc(OC)cc(C(=O)N2c3ccc(F)cc3CCC2C)c1 (configuration not stated) | -0.327% [at 0.00035 µM] (inactive)
COC(=O)c1cc(NC2c3ccccc3C(=O)N2c2cccnc2)cc(C(=O)OC)c1 (configuration not stated) | -0.103% [at 0.00035 µM] (inactive)
CCCN1C(=O)c2ccccc2NC1c1ccc(OC)c(COc2cccc(OC)c2)c1 (configuration not stated) | inactive
COc1ccc(CN(Cc2ccccc2)C(=O)CN2CCN(C)CC2)cc1COc1ccc(NC(C)=O)cc1 | inactive
O=C1c2ccccc2NC(c2cccc(F)c2)N1Cc1ccco1 (configuration not stated) | inactive
CCCN1C(=O)c2ccccc2NC1c1ccc(OC)c(CSc2ccccn2)c1 (configuration not stated) | inactive
